- TEST_SUMMARY: Inhibition of pig pancreatic cholesterol esterase preincubated for 5 mins by spectrophotometry
- Design: species or system Sus scrofa
pIC50: −log10 of the molar value.
Satisfied means recorded pIC50 is 5 or above; Not satisfied means it is below 5.

CCCc1ccccc1NC(=O)[C@H](COC(C)(C)C)NC(=O)c1ccc(/C=C2\SC(=S)NC2=O)cc1 | Satisfied

**Q:** Is pIC50 at least 5? Consider CCCc1ccccc1NC(=O)[C@H](CO)NC(=O)c1ccc(/C=C2\SC(=O)NC2=O)cc1
**A:** Satisfied

**Q:** Ok, now CCCc1ccccc1OCC(O)COc1ccc(/C=C2\SC(=S)NC2=O)cc1 (racemic)
**A:** Satisfied

**Q:** Could you do the same for CCCc1ccccc1NC(=O)[C@H](CO)NC(=O)c1ccc(/C=C2\SC(=S)NC2=O)cc1 , please?
**A:** Not satisfied

**Q:** // repeat for CCCc1ccccc1NC(=O)[C@H](C)NC(=O)c1ccc(/C=C2\SC(=O)NC2=O)cc1 and report
**A:** Not satisfied

**Q:** Repeat with O=C1NC(=O)/C(=C/c2ccc(C(=O)O)cc2)S1
**A:** Not satisfied

###

- Species on record: Sus scrofa
- TEST_SUMMARY: Inhibition of pig pancreatic cholesterol esterase assessed as residual enzyme activity at infinite compound concentration preincubated for 5 mins by spectrophotometry
A collection of compounds and their measured Activity
A number alone suffices; assume %.

Below: 2 compounds and their reported Activity.
CCCc1ccccc1NC(=O)[C@H](CO)NC(=O)c1ccc(/C=C2\SC(=O)NC2=O)cc1 | 12
CCCc1ccccc1OCC(O)COc1ccc(/C=C2\SC(=S)NC2=O)cc1 (racemic) | 18

**Q:** Give its Activity value. Item: CCCc1ccccc1NC(=O)[C@H](COCc1ccccc1)NC(=O)c1ccc(/C=C2\SC(=S)NC2=O)cc1
**A:** 25

**Q:** Input CCCc1ccccc1OCC(O)COc1ccc(/C=C2\SC(=O)NC2=O)cc1 (racemic)
**A:** 17

###

- TARGET_OR_SYSTEM: Acetylcholinesterase (Electrophorus electricus)
- Sequence (O42275 whole entry): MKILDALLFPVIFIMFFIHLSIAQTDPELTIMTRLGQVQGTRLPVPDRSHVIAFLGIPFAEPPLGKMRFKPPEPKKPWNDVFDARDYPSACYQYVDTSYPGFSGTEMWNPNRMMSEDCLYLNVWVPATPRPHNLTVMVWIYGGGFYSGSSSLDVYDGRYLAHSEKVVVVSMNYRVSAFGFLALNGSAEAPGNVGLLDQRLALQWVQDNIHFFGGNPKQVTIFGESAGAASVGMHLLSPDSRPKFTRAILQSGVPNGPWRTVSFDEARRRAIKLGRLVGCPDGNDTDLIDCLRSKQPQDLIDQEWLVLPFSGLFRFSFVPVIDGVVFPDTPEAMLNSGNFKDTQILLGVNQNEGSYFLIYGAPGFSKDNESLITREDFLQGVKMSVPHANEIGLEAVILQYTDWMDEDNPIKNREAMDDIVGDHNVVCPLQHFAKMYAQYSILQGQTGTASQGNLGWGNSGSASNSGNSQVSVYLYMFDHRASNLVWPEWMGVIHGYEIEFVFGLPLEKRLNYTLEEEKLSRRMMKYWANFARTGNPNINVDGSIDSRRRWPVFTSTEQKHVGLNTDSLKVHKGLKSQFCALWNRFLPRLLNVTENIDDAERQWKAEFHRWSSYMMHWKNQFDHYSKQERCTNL
Define the label as TRUE when IC50 is strictly less than 60 µM and as FALSE in all remaining cases.

Sample answers from the record:
O=C1NC(=O)/C(=C/c2ccccc2)S1 | FALSE
CCCc1ccccc1NC(=O)[C@H](Cc1ccc(O)cc1)NC(=O)c1ccc(/C=C2\SC(=S)NC2=O)cc1 | TRUE
CCCc1ccccc1NC(=O)[C@H](COC(C)(C)C)NC(=O)c1ccc(/C=C2\SC(=O)NC2=O)cc1 | FALSE
CCCc1ccccc1NC(=O)[C@H](COCc1ccccc1)NC(=O)c1ccc(/C=C2\SC(=S)NC2=O)cc1 | TRUE
CCCc1ccccc1NC(=O)[C@H](CO)NC(=O)c1ccc(/C=C2\SC(=S)NC2=O)cc1 | FALSE
O=C1NC(=S)S/C1=C\c1ccc(C(=O)O)cc1 | FALSE
CCCc1ccccc1OCC(O)COc1ccc(/C=C2\SC(=S)NC2=O)cc1 (racemic) | TRUE
CCCc1ccccc1NC(=O)[C@H](Cc1ccccc1)NC(=O)c1ccc(/C=C2\SC(=O)NC2=O)cc1 | TRUE

Attention now shifts to the item below.
**Q:** Strictly below 60 µM: is that where IC50 of CCCc1ccccc1NC(=O)[C@H](Cc1ccccc1)NC(=O)c1ccc(/C=C2\SC(=S)NC2=O)cc1 sits?
**A:** TRUE

###

- TEST_SUMMARY: Inhibition of pig pancreatic cholesterol esterase preincubated for 5 mins by spectrophotometry
- Parameters: species or system Sus scrofa
pIC50: −log10 of the molar value.
Response key: 1 means pIC50 >= 5; 0 means pIC50 < 5.

CCCc1ccccc1NC(=O)[C@H](COC(C)(C)C)NC(=O)c1ccc(/C=C2\SC(=O)NC2=O)cc1 | 0

**Q:** Entry CCCc1ccccc1OCC(O)COc1ccc(/C=C2\SC(=O)NC2=O)cc1 (racemic) : is its pIC50 no less than 5?
**A:** 1

**Q:** Same read-out for CCCc1ccccc1NC(=O)[C@H](C)NC(=O)c1ccc(/C=C2\SC(=S)NC2=O)cc1 ?
**A:** 0

**Q:** What do you get for O=C1NC(=O)/C(=C/c2ccccc2)S1 ?
**A:** 0

**Q:** Another compound to check: CCCc1ccccc1NC(=O)[C@H](Cc1ccccc1)NC(=O)c1ccc(/C=C2\SC(=O)NC2=O)cc1
**A:** 0

**Q:** Proceed to O=C1NC(=S)S/C1=C\c1ccc(C(=O)O)cc1
**A:** 0

**Q:** Same for CCCc1ccccc1NC(=O)[C@H](Cc1ccc(O)cc1)NC(=O)c1ccc(/C=C2\SC(=S)NC2=O)cc1
**A:** 0

**Q:** Another compound to look at: CCCc1ccccc1NC(=O)[C@H](Cc1ccccc1)NC(=O)c1ccc(/C=C2\SC(=S)NC2=O)cc1
**A:** 0

**Q:** For CCCc1ccccc1NC(=O)[C@H](COCc1ccccc1)NC(=O)c1ccc(/C=C2\SC(=S)NC2=O)cc1 then?
**A:** 1

###

- TEST_SUMMARY: Mixed inhibition of pig pancreatic cholesterol esterase preincubated for 5 mins by specific velocity plot analysis
- Parameters: species or system Sus scrofa
READOUT_NAME: pKi
Keep it numeric: pKi is minus log10 of the concentration in mol/L.

**Q:** // pKi lookup, key: CCCc1ccccc1OCC(O)COc1ccc(/C=C2\SC(=S)NC2=O)cc1 (racemic)
**A:** 5.91
